tested on: Plasmodium falciparum; test: GSK_TCMDC: Inhibition of Plasmodium falciparum 3D7 in whole red blood cells, using parasite LDH activity as an index of growth. Test compounds present at 2uM; type: functional
Please go through the items and note down their Inhibition.
Report as: number unit

GET /value?item= "O=C(O)C[C@H](NC(=O)c1cc(-c2ccc3c(c2)OCO3)no1)C(=O)O.O=C(O)C[C@H](NC(=O)c1conc1-c1ccc2c(c1)OCO2)C(=O)O" &field=Inhibition returns 98%

For reference, reported Inhibition for "CS(=O)(=O)Cc1ccc(Nc2nccc(-c3c(-c4cccc(NC(=O)C5CCCCC5)c4)nn4ncccc34)n2)cc1" stands at 98%

So for "CN(C)CCN(C)Cc1ccc(-c2ccc(NS(=O)(=O)c3cccc4cccnc34)cc2)cc1.O=C(O)C(F)(F)F" , the logged Inhibition turned out to be 93%

Record "C[C@H](NC(=O)c1c(OC2CN(C(c3ccccc3)c3ccccc3)C2)c(-c2ccccc2)nc2ccccc12)C1CCCCC1" , field Inhibition: 92%

Per the records, this molecule ( Cc1ccccc1C1CCN(C2CCC(NC(=O)/C=C/c3c(F)ccc(F)c3F)CC2)CC1 (configuration not stated) ) has Inhibition equal to 82%

The measured Inhibition associated with "CCc1cc([C@H]2O[C@@H](n3cnc4c(NCC(c5ccccc5)c5ccccc5)nc(NCCNc5ccccn5)nc43)[C@H](O)[C@@H]2O)on1.O=CO" reads 94%

get_value(item= "Cc1cc(N[C@@H](CC(C)C)C(=O)Nc2ccccc2)nc(NCCc2ccccc2)n1.O=C(O)C(F)(F)F" , readout=Inhibition) returns 100%

====

Kindly state Inhibition for each of the entries shown.
system: HepG2; experiment: GSK_TCMDC: Percent inhibition of human HepG2 cell line. Test compounds present at 10uM.; format: functional
Write the numeric value and append its unit.

The reported Inhibition of the compound "CSc1sc(NC(=O)Nc2cccc(C(F)(F)F)c2)cc1C#N" was 27%

Sure, the documented Inhibition for "CCOC(=O)c1ccc(COc2ccc(C)nc2)cc1" is 14%

Noted for "CO/C(=C/C=C/c1cc2cc(Cl)c(Cl)cc2[nH]1)C(=O)NC1CC(C)(C)N(C)C(C)(C)C1" : its Inhibition reads 58%

Inhibition measured on "Cc1cc(N[C@@H](CC(C)C)C(=O)NCCOc2ccccc2)nc(NCCOc2ccccc2)n1.O=C(O)C(F)(F)F" = 0%

The compound identified as COc1ccc(Nc2nccc(N3CCC(NC(=O)c4cccc(NC(C)=O)c4)C3)n2)cc1 (stereo not given) registered its Inhibition at 0%

====

Please go through the items and note down their Inhibition.
tested on: Plasmodium falciparum; assay: GSK_TCMDC: Inhibition of Plasmodium falciparum 3D7 in whole red blood cells, using parasite LDH activity as an index of growth. Test compounds present at 2uM; format: functional
A number alone suffices; assume %.

Consider "CCCc1cc(OC)c(C[C@H]2c3cc(O)c(Cl)cc3CCN2C)cc1OC.Cl" . Its measured Inhibition is 97

The value of Inhibition measured for the compound "COc1ccc(NC(=O)Nc2cc(C)nc3ccccc23)cc1Cl" turned out to be 100

Please fill in: Inhibition reported for CNC(=O)COc1ccc(Nc2nnc(-c3ccc(C)c(S(=O)(=O)NCC4CCCO4)c3)c3ccccc23)cc1 (stereo not given) = 90

The compound identified as "O=C(O)C(F)(F)F.c1ccc(CNCc2ccc(-c3ccc(-c4nc5ccccc5[nH]4)cc3)cc2)cc1" registered its Inhibition at 100

Lab note: measured Inhibition of "CCc1ccc(Cc2cnc3nc(N)nc(N)c3c2C)cc1CC" was 97

Short answer for O=C(Nc1cccc(C(F)(F)F)c1)c1cccc(S(=O)(=O)NCC2CCCN2CC2CCCCC2)c1.O=C(O)C(F)(F)F (stereo not given) : Inhibition was 97

Measured Inhibition of "O=C(/C=C/c1ccc(Cl)cc1Cl)NCCCCCN1CCC(c2c[nH]c3ccccc23)CC1" : 99

Measured Inhibition of "c1ccc2c3c(ccc2c1)Sc1c(ccc2ccccc12)N3" : 92

Measured Inhibition of "O=C(O)C(F)(F)F.c1ccc2c(c1)CN(Cc1ccsc1)CC1(CCN(Cc3c[nH]c4cnccc34)CC1)O2" : 87

// Inhibition lookup, compound = "Cc1cccc(C=NN=c2cc(C)[nH]c3ccc(F)cc23)n1" , result: 95

====

system: HepG2; assay: GSK_TCMDC: Percent inhibition of human HepG2 cell line. Test compounds present at 10uM.; assay type: functional
Can you tell me Inhibition for the items I'm about to list?
Don't forget the unit after the number, please.

Inhibition reported for this compound "Cc1ccc(NC(=O)c2cc(S(=O)(=O)NC(C)(C)C)ccc2C)nc1" : 0%

Record "Cc1cccc2nc(-c3cccc(-c4ccc(NC(=O)Nc5ccc(F)c(F)c5F)cc4)c3)[nH]c12" . Reported Inhibition: 61%

Item: "Cc1ccc(NC(=O)c2ccc(CN3CCCN(Cc4cccc(O)c4)CC3)cc2)cc1C.O=C(O)C(F)(F)F" | Inhibition: 33%

get_value(item= "CCOc1ccc(NC(C)=O)c(O)c1" , readout=Inhibition) returns 6%

Inhibition reading for "Cc1sc(N2CCCCC2)nc1C(=O)Nc1ccc(F)cc1C(F)(F)F.O=C(O)C(F)(F)F" : 0%

====

tested on: HepG2; test: GSK_TCMDC: Percent inhibition of human HepG2 cell line. Test compounds present at 10uM.; format: functional
Label T when Inhibition >= 20%; otherwise F.

Ask: Determine whether measured Inhibition meets or exceeds 20% for "N=c1c2nc(-c3c(F)cccc3Cl)[nH]c(=O)c2[nH]c(=O)n1-c1ccccc1"
Reply: T

Ask: Test whether the compound "CN1CCN(CCCNCc2ccc(Nc3nccc(Nc4ccc(Oc5ccccc5)cc4)n3)cc2)CC1" records Inhibition of 20% or higher.
Reply: F

Ask: Form field: Inhibition at least 20%? Entry: CC1CN(Cc2ccc(C#N)cc2)CCN1c1ccc(NC(=O)c2cccs2)cc1.O=C(O)C(F)(F)F (stereo not drawn)
Reply: F

Ask: Please tell me: is the compound "CC(C)c1ccc(NC(=O)N[C@H]2CCN(CCCCCNC(=O)/C=C/c3ccc(Cl)c(Cl)c3)C2)cc1" at or over 20% in terms of Inhibition?
Reply: T

Ask: Could you tell me if the measured Inhibition of "COc1cc(C)nc2ccc(NC(=O)c3ccc(C(=O)Nc4ccc5nc(C)cc(OC)c5c4)cc3)cc12" reaches 20% or more?
Reply: T

Ask: Please tell me: is the compound "O=S(=O)(Nc1cccc(CCN2CCC(N3CCCCC3)CC2)c1)c1ccc(Cl)cc1" at or over 20% in terms of Inhibition?
Reply: F

Ask: Confirm if Inhibition reported for the compound "CCN1CCN(CCCNc2c3ccc(Cl)cc3nc3ccc(O)cc23)CC1" is 20% or above.
Reply: T

Ask: API: above_or_equal(metric=Inhibition, cutoff=20%) for item "Cc1cc(N(C)C)nc(Nc2ccc(NC(=O)COc3ccccc3)cc2)n1"
Reply: F

Ask: Could you verify whether the entry "Cc1ccc2c(=O)n(C)c(=O)n(C)c2n1" shows Inhibition of no less than 20%?
Reply: F

Ask: Assess whether reported Inhibition for "c1ccc(-c2ccc(-c3nc4ccccc4[nH]3)cc2)cc1" sits at 20% or higher.
Reply: F

Ask: Is reported Inhibition greater than or equal to 20% here: "COc1ccccc1Cc1nc2ccccc2nc1SCC(=O)Nc1cccc(C(F)(F)F)c1"
Reply: F

Ask: Hi, just wondering whether "Cc1c(CNCCCNc2cc(=O)c3ccccc3[nH]2)sc(C(F)=C(F)F)c1Br.Cl" shows Inhibition of 20% or higher.
Reply: F

Ask: Given CCCCCN1CCCC(CNS(=O)(=O)c2cccc(C(=O)Nc3ccc(C(F)(F)F)cc3)c2)C1.O=C(O)C(F)(F)F (stereo not drawn) , state whether its Inhibition is at least 20%.
Reply: T

Ask: Check if Inhibition >= 20% (inclusive). Item: CCC(C)NCCC(c1ccccc1)c1ccccc1O.Cl (stereo not drawn)
Reply: F

Ask: Check this compound for Inhibition at or above 20%: "CCOc1ccc(NC(=O)c2cccc(CN3CCCN(Cc4cccc(O)c4)CC3)c2)cc1.O=C(O)C(F)(F)F"
Reply: T

Ask: Assess whether reported Inhibition for "CCOc1cc(C(=O)Nc2ccc(-c3nc4ccccc4[nH]3)cc2)cc(OCC)c1OCC" sits at 20% or higher.
Reply: T

Ask: Dear colleague, could you confirm whether O=C(O)C1CC(=O)N(c2ccc(Cl)cc2)C1 (stereo not drawn) has Inhibition at or above 20%?
Reply: T

Ask: Item "COc1ccc2nc(C)cc(NCc3cccc4ccccc34)c2c1.Cl" with Inhibition of 20% or above?
Reply: T

Ask: Does Inhibition meet or surpass 20% for O=C(NCc1cccc(C(F)(F)F)c1)C1CCCN(C(=O)c2ccc(O)c(-c3ccc(Cl)c(Cl)c3)c2)C1 (stereo not drawn) ?
Reply: F

Ask: Record "CN1CCC=C(C(=O)NCC(C)(C)c2nc(-c3ccc(Cl)c(O)c3)c(-c3ccncc3)[nH]2)C1.Cl" ; criterion: Inhibition no lower than 20%. Met?
Reply: T

Ask: Determine whether measured Inhibition meets or exceeds 20% for Cc1ccc(C(=O)Nc2ccc(C)c(OC3CCN(Cc4ccco4)C3)c2)cc1.O=C(O)C(F)(F)F (stereo not drawn)
Reply: F

Ask: Could you verify whether the entry "COc1ccc2c(=O)c(I)c(C)[nH]c2c1" shows Inhibition of no less than 20%?
Reply: T

Ask: Reported Inhibition reaches at least 20% for "COc1ccc(Nc2ccnc3cc4ccccc4cc23)cc1.Cl" ?
Reply: T

Ask: Kindly determine if Inhibition recorded for "COc1ccc(-c2cccc(NC(=O)c3ccc(F)cc3)c2)cc1CNC(C)C.O=C(O)C(F)(F)F" is above or exactly 20%.
Reply: T

Ask: Inhibition >= 20% for O=C(C1CCCC1)N1CCOC(CCN2CCC(c3ccccc3)CC2)(c2ccc(Cl)c(Cl)c2)C1 (stereo not drawn) ?
Reply: F

Ask: Please indicate if the recorded Inhibition for "COc1ccc(NCc2cccc(-c3cccc(CNCCc4ccccc4)c3)c2)cc1.O=C(O)C(F)(F)F" meets or exceeds 20%.
Reply: T

Ask: Assess whether reported Inhibition for "CS(=O)(=O)c1ccc(CCNCc2ccc(-c3ccc(CNC4CCN(Cc5ccccc5)CC4)cc3)nc2)cc1.O=C(O)C(F)(F)F" sits at 20% or higher.
Reply: T

Ask: Determine whether this compound has Inhibition no lower than 20%: "C=C1C(C(=O)OCC)=CN(CC)c2cc(O[C@H]3CCN(C(=O)OC(C)(C)C)C3)ccc21"
Reply: F

Ask: Is Inhibition for "CC(C)N(C(=O)CSc1nc2cc(Cl)ccc2c(=O)n1Cc1ccccc1)C(C)C" at or above 20%?
Reply: F

Ask: Threshold query (Inhibition >= 20%) on "O=C(/C=C/c1ccc(Cl)c(Cl)c1)NCCCCCN1CCC(NC(=O)Nc2ccc(OC(F)F)cc2)CC1"
Reply: T

Ask: State whether the measured Inhibition reaches 20%, counting equality as reaching it, for "COc1ccc2cc(-c3nc(-c4c(Cl)cccc4Cl)[nH]c3-c3ccnc(NCCCN4CCN(C)CC4)c3)ccc2c1.O=C(O)C(F)(F)F"
Reply: F

Ask: Is it the case that Cc1n[nH]c(C)c1C1CCN(CC2CCC(NC(=O)/C=C/c3ccc(Cl)c(Cl)c3)CC2)CC1 (stereo not drawn) has Inhibition reaching or exceeding 20%?
Reply: F

Ask: # bool: Inhibition of "CCNc1cc(C)nc(Nc2ccc(F)cc2)n1" >= 20%
Reply: F

Ask: Given the entry "Cc1cc(N(C)C)nc(Nc2ccc(NC(=O)c3c(F)cccc3F)cc2)n1" , answer whether its Inhibition meets or surpasses 20%.
Reply: T

Ask: Could you verify whether the entry "Cc1cc(NCCC(=O)Nc2ccccc2)nc(NCCc2cccs2)n1.O=C(O)C(F)(F)F" shows Inhibition of no less than 20%?
Reply: T

Ask: Given the entry "CCN(CC)CCN(Cc1ccc(-c2ccc(C(F)(F)F)cc2)cc1)C(=O)Cn1c(CCc2cccc(F)c2F)nc(=O)c2cc(F)c(F)cc21.O=C(O)C(O)C(O)C(=O)O" , answer whether its Inhibition meets or surpasses 20%.
Reply: T

Ask: Does the reported Inhibition for CNC(=O)C(C)N(c1ccc(Cl)cc1)c1nc(C(C)(C)C)cs1 (stereo not drawn) fall at or above the 20% mark?
Reply: F

Ask: Does Oc1ccc(Br)cc1C(O)CNCc1ccccc1OCc1ccccc1 (stereo not drawn) have a reported Inhibition of at least 20%?
Reply: T
